Each recorded value in this set is attributed to patent US20230265116A1.

measured target: EGFR L858R/T790M/C797S (BaF3-LTC cells) (Homo sapiens, UniProt P00533, C797S/L858R/T790M)
Construct: expressed in transfected cells; host or cells: BaF3
Sequence (P00533 25-1210 T790M/C797S/L858R): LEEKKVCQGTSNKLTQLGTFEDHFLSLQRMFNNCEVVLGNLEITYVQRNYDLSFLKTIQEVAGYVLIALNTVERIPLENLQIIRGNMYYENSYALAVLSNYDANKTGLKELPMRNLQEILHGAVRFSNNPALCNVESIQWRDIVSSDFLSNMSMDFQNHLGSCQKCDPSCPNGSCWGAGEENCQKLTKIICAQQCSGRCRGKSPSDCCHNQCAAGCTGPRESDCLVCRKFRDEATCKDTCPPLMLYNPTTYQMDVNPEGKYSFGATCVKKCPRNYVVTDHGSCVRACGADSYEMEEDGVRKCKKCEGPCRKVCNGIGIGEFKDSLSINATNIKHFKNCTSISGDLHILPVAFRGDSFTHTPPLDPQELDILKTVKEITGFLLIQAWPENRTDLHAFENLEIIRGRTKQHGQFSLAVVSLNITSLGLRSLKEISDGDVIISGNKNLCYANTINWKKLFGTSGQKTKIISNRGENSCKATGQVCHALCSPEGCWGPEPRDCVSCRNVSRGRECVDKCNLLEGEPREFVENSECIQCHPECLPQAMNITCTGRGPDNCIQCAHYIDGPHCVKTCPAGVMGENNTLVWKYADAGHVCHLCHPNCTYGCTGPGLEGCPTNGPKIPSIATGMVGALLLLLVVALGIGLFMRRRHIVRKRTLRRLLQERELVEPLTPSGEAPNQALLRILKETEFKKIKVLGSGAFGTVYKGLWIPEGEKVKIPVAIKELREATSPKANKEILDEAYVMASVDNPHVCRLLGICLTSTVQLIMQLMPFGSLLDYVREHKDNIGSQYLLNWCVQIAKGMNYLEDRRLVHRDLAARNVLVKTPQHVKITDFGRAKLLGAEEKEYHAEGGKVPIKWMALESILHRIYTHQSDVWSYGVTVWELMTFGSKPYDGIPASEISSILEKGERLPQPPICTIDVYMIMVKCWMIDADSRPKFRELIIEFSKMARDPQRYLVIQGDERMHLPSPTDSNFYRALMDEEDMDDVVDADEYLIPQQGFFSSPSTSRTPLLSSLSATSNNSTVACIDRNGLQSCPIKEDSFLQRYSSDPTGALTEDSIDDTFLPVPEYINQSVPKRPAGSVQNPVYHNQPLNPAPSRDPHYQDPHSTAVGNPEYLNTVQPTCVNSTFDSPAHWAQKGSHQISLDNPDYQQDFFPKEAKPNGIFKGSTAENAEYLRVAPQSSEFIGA
protocol summary: EGFR degradation HTRF assay, BaF3-LTC cells
Format: cell-based
experimental conditions: BaF3-LTC cells; maximum percentage of inhibition (degradation); read-out: Dmax (%) BaF3-LTC
experimental readout: Dmax (%)

compound="CCc1ccc2c(P(C)(C)=O)c(Nc3nc(Nc4cc(C)c(N5CCC(N6CCN(CCc7ccc8c(c7)oc(=O)n8C7CCC(=O)NC7=O)CC6)CC5)cc4OC4CC4)ncc3Br)ccc2n1 (stereo not drawn)" measurement_unit=% experimental_value=87
compound=CCOc1cc(N2CCC(N3CCN(CCCOc4cc(F)c([C@H]5CCC(=O)NC5=O)c(F)c4)CC3)CC2)c(CC)cc1Nc1ncc(Br)c(Nc2ccc3c(=O)n(CC)ncc3c2P(C)(C)=O)n1 measurement_unit=% experimental_value=87.4
compound="CCOc1cc(N2CCC(N3CCN(C(=O)COc4cccc5c4n(C)c(=O)n5C4CCC(=O)NC4=O)CC3)CC2)c(CC)cc1Nc1ncc(Br)c(Nc2ccc3nc(CC)ccc3c2P(C)(C)=O)n1 (stereo not drawn)" measurement_unit=% experimental_value=92.9
compound=CCc1cc(Nc2ncc(Br)c(Nc3ccc4nc(C#N)ccc4c3P(C)(C)=O)n2)c(OC)cc1N1CCC(N2CCN(CCc3cc(F)c([C@H]4CCC(=O)NC4=O)c(F)c3)CC2)CC1 measurement_unit=% experimental_value=95
compound="CCOc1cc(N2CCC(N3CCN(CCOCCc4cccc5c4oc(=O)n5C4CCC(=O)NC4=O)CC3)CC2)c(CC)cc1Nc1ncc(Br)c(Nc2ccc3nc(CC)ccc3c2P(C)(C)=O)n1 (stereo not drawn)" measurement_unit=% experimental_value=92.1
compound="CCOc1cc(N2CCC(N3CCN(CCCCc4cc(F)cc5c4oc(=O)n5C4CCC(=O)NC4=O)CC3)CC2)c(CC)cc1Nc1ncc(Br)c(Nc2ccc3nc(CC)ccc3c2P(C)(C)=O)n1 (stereo not drawn)" measurement_unit=% experimental_value=95.1

* * *

measured target: EGFR L858R/T790M/C797S (BaF3-LTC cells) (Homo sapiens, UniProt P00533, C797S/L858R/T790M)
Construct: expressed in transfected cells; host or cells: BaF3
protocol summary: EGFR degradation HTRF assay, BaF3-LTC cells
Format: cell-based
experimental conditions: BaF3-LTC cells; EGFR degradation, IC50 (DC50) from curve fit; read-out: DC50(nM) BaF3-LTC
experimental readout: DC50 (nM)

compound="CCc1cc(Nc2ncc(C(F)(F)F)c(Nc3ccc4nc(C)ccc4c3P(C)(C)=O)n2)c(OC)cc1N1CCC(N2CCN(CCc3cc(F)c(C4CCC(=O)NC4=O)c(F)c3)CC2)CC1 (stereo not shown)" experimental_readout=DC50 experimental_value=15.4
compound="CCc1ccc2c(P(C)(C)=O)c(Nc3nc(Nc4cc(C5CC5)c(N5CCC(N6CCN(CCc7cccc8c7oc(=O)n8C7CCC(=O)NC7=O)CC6)CC5)cc4OC)ncc3Br)ccc2n1 (stereo not shown)" experimental_readout=DC50 experimental_value=9.33
compound="CCOc1cc(N2CCC(N3CCN(CCc4c(F)ccc5c4oc(=O)n5C4CCC(=O)NC4=O)CC3)CC2)c(CC)cc1Nc1ncc(Br)c(Nc2cc(F)c3nc(CC)ccc3c2P(C)(C)=O)n1 (stereo not shown) [Example 614]" experimental_readout=DC50 experimental_value=23.8

a: CCc1cc(Nc2ncc(Br)c(Nc3ccc4cc(C)ncc4c3P(C)(C)=O)n2)c(OC)cc1N1CCC(N2CCN(C(=O)[C@@H]3CCN(c4cc(F)c([C@H]5CCC(=O)NC5=O)c(F)c4)C3)CC2)CC1
b: CCOc1cc(N2CCC(N3CCN(CCc4cc(F)c([C@H]5CCC(=O)NC5=O)c(F)c4)CC3)CC2)c(CC)cc1Nc1ncc(C)c(Nc2cc(F)c3nc(CC)ccc3c2P(C)(C)=O)n1
Could you check which of a and b has a smaller value for DC50? Your choice should be expressed through its label. a

a: CCOc1cc(N2CCC(N3CCN(CCc4c(F)ccc5c4n(C)c(=O)n5C4CCC(=O)NC4=O)CC3)CC2)c(CC)cc1Nc1ncc(Br)c(Nc2ccc3nc(CC)ncc3c2P(C)(C)=O)n1 (stereo not shown)
b: CCOc1cc(N2CCC(N3CCN(CCc4cccc5c4n(C4CC4)c(=O)n5C4CCC(=O)NC4=O)CC3)CC2)c(CC)cc1Nc1ncc(Br)c(Nc2ccc3nc(CC)ccc3c2P(C)(C)=O)n1 (stereo not shown)
Look at a and b . Which one has the lower recorded DC50 number? Output the label that corresponds to your choice. a
(a: 4.01 nM, b: 12.2 nM)

* * *

measured target: EGFR (HCC827 cells) (Homo sapiens, UniProt P00533, DEL746-750)
Construct: endogenous in cells; host or cells: HCC827
Sequence (P00533 with tags, fused parts or gaps DEL746-750): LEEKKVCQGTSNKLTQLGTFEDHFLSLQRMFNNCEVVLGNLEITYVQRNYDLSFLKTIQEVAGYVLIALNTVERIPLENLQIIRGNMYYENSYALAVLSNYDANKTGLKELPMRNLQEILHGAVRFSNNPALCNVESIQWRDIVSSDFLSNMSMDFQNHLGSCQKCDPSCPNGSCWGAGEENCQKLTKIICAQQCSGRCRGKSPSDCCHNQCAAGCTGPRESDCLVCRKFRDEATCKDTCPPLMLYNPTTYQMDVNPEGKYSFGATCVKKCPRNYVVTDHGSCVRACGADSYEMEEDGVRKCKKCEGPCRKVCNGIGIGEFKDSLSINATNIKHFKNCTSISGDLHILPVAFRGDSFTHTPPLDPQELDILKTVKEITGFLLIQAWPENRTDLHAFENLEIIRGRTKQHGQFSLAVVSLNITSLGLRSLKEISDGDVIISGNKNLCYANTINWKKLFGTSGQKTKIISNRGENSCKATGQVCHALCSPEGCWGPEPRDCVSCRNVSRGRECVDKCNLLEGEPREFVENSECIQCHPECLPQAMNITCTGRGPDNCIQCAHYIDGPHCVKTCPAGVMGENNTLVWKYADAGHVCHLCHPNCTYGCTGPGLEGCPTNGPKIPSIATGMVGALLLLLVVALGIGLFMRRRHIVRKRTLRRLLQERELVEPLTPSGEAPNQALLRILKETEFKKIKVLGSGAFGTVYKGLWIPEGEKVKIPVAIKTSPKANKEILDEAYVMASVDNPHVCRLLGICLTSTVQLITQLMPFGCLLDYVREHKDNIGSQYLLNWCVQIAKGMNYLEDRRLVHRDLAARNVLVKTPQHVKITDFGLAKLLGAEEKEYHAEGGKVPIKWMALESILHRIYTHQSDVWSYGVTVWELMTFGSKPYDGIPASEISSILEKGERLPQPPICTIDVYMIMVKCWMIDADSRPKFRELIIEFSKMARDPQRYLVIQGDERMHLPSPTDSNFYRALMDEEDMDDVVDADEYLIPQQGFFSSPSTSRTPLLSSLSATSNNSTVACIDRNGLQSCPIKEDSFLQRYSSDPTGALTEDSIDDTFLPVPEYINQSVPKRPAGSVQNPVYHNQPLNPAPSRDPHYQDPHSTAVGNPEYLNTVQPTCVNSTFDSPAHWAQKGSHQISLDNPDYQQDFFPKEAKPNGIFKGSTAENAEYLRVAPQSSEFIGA
protocol summary: EGFR degradation HTRF assay, HCC827 cells
Type: cell-based
experimental conditions: HCC827, 16h treatment, maximum percentage of degradation
experimental readout: Dmax (%)

compound="CCc1cc(Nc2ncc(Br)c(Nc3ccc4nccnc4c3P(C)(C)=O)n2)c(OC)cc1N1CCC(N2CCN(C(=O)[C@@H]3CCN(c4cc(F)c(C5CCC(=O)NC5=O)c(F)c4)C3)CC2)CC1 (stereo partly drawn)" experimental_value=78.5
compound="COc1cc(N2CCC(N3CCN(CCCOc4ccc(OC5CCC(=O)NC5=O)cc4)CC3)CC2)ccc1Nc1ncc(Cl)c(Nc2ccccc2P(C)(C)=O)n1 (stereo not drawn)" experimental_value=79.6
compound="CCc1cc(Nc2ncc(Br)c(Nc3ccc4nccnc4c3P(C)(C)=O)n2)c(OC)cc1N1CCC(N2CCN(CCc3ccc(C4CCC(=O)NC4=O)c(OC)c3)CC2)CC1 (stereo not drawn)" experimental_value=78.5

* * *

measured target: EGFR L858R/T790M/C797S (BaF3-LTC cells) (Homo sapiens, UniProt P00533, C797S/L858R/T790M)
Construct: expressed in transfected cells; host or cells: BaF3
protocol summary: EGFR degradation HTRF assay, BaF3-LTC cells
Format: cell-based
experimental conditions: BaF3-LTC, 16h treatment, maximum percentage of degradation; read-out: LTC Dmax (%)
experimental readout: Dmax (%)

compound="CCc1cc(Nc2ncc(Br)c(Nc3ccc4scnc4c3P(C)(C)=O)n2)c(OC)cc1N1CCC(N2CCN(CCc3cc(F)c(C4CCC(=O)NC4=O)c(F)c3)CC2)CC1 (stereo not drawn) [Example 206]" measured_target="EGFR L858R/T790M/C797S (BaF3-LTC cells) (Homo sapiens, UniProt P00533, C797S/L858R/T790M)" experimental_readout=Dmax measurement_unit=% experimental_value=92.1
compound="CCc1cc(Nc2ncc(Br)c(Nc3ccc4nccnc4c3P(C)(C)=O)n2)c(OC)cc1N1CCC(N2CCN(C3CC(c4ccc5c(c4)C(C)(C)C(=O)N5C4CCC(=O)NC4=O)C3)CC2)CC1 (stereo not drawn) [Example 317]" measured_target="EGFR L858R/T790M/C797S (BaF3-LTC cells) (Homo sapiens, UniProt P00533, C797S/L858R/T790M)" experimental_readout=Dmax measurement_unit=% experimental_value=94.1
compound="CCc1cc(Nc2ncc(Br)c(Nc3ccc4nccnc4c3P(C)(C)=O)n2)c(OC)cc1N1CCC(N2CCN(C(=O)C3CCN(c4cc(F)c(C5CCC(=O)NC5=O)c(F)c4)CC3)CC2)CC1 (stereo not drawn) [Example 254]" measured_target="EGFR L858R/T790M/C797S (BaF3-LTC cells) (Homo sapiens, UniProt P00533, C797S/L858R/T790M)" experimental_readout=Dmax measurement_unit=% experimental_value=84.7
compound="CCc1cc(Nc2ncc(Br)c(Nc3ccc4nc(C(F)(F)F)ccc4c3P(C)(C)=O)n2)c(OC)cc1N1CCC(N2CCN(CCC3CCN(c4cc(F)c(C5CCC(=O)NC5=O)c(F)c4)CC3)CC2)CC1 (stereo not drawn) [Example 437]" measured_target="EGFR L858R/T790M/C797S (BaF3-LTC cells) (Homo sapiens, UniProt P00533, C797S/L858R/T790M)" experimental_readout=Dmax measurement_unit=% experimental_value=91.2
compound="CCc1cc(Nc2ncc(Br)c(Nc3ccc4nccnc4c3P(C)(C)=O)n2)c(OC)cc1N1CCC(N2CCN(CCc3ccc4nn(C5CCC(=O)NC5=O)cc4c3)CC2)CC1 (stereo not drawn) [Example 309]" measured_target="EGFR L858R/T790M/C797S (BaF3-LTC cells) (Homo sapiens, UniProt P00533, C797S/L858R/T790M)" experimental_readout=Dmax measurement_unit=% experimental_value=87.2
compound="CCc1cc(Nc2ncc(Br)c(Nc3ccc4ncn(C)c(=O)c4c3P(C)(C)=O)n2)c(OC)cc1N1CCC(N2CCN(C(=O)C3CCN(c4cc(F)c(C5CCC(=O)NC5=O)c(F)c4)C3)CC2)CC1 (stereo not drawn) [Example 701]" measured_target="EGFR L858R/T790M/C797S (BaF3-LTC cells) (Homo sapiens, UniProt P00533, C797S/L858R/T790M)" experimental_readout=Dmax measurement_unit=% experimental_value=92.7
compound="CCc1cc(Nc2ncc(Br)c(Nc3ccc4cc(C)ncc4c3P(C)(C)=O)n2)c(OC)cc1N1CCC(N2CCN(CCc3cc(F)c(C4CCC(=O)NC4=O)c(F)c3)CC2)CC1 (stereo not drawn) [Example 200]" measured_target="EGFR L858R/T790M/C797S (BaF3-LTC cells) (Homo sapiens, UniProt P00533, C797S/L858R/T790M)" experimental_readout=Dmax measurement_unit=% experimental_value=88.6
compound="CCc1cc(Nc2ncc(Br)c(Nc3ccc4nccnc4c3P(C)(C)=O)n2)c(OC)cc1N1CCC(N2CCN(CCCCc3cc(F)c(C4CCC(=O)NC4=O)c(F)c3)CC2)CC1 (stereo not drawn) [Example 282]" measured_target="EGFR L858R/T790M/C797S (BaF3-LTC cells) (Homo sapiens, UniProt P00533, C797S/L858R/T790M)" experimental_readout=Dmax measurement_unit=% experimental_value=85
compound="CCc1cc(Nc2ncc(Br)c(Nc3ccc4nc(C)c(C)cc4c3P(C)(C)=O)n2)c(OC)cc1N1CCC(N2CCN(CCc3cc(F)c(C4CCC(=O)NC4=O)c(F)c3)CC2)CC1 (stereo not drawn) [Example 707]" measured_target="EGFR L858R/T790M/C797S (BaF3-LTC cells) (Homo sapiens, UniProt P00533, C797S/L858R/T790M)" experimental_readout=Dmax measurement_unit=% experimental_value=92.1
compound="CCc1cc(Nc2ncc(Br)c(Nc3ccc4nccnc4c3P(C)(C)=O)n2)c(OC)cc1N1CCC(N2CCN(CCCN3CCN(c4ccc5c(c4)C(=O)N(C4CCC(=O)NC4=O)C5=O)CC3)CC2)CC1 (stereo not drawn) [Example 60]" measured_target="EGFR L858R/T790M/C797S (BaF3-LTC cells) (Homo sapiens, UniProt P00533, C797S/L858R/T790M)" experimental_readout=Dmax measurement_unit=% experimental_value=91.2
compound="CCc1cc(Nc2ncc(Br)c(Nc3ccc4nccnc4c3P(C)(C)=O)n2)c(OC)cc1N1CCC(N2CCN(C(=O)[C@H]3CCN(c4ccc(C5CCC(=O)NC5=O)cc4)C3)CC2)CC1 (stereo partly drawn) [Example 223]" measured_target="EGFR L858R/T790M/C797S (BaF3-LTC cells) (Homo sapiens, UniProt P00533, C797S/L858R/T790M)" experimental_readout=Dmax measurement_unit=% experimental_value=82.9
compound="CCc1cc(Nc2ncc(Br)c(Nc3ccc4nccnc4c3P(C)(C)=O)n2)c(OC)cc1N1CCC(N2CCN(CCc3ccc(C4CCC(=O)NC4=O)c(F)c3)[C@H](COC)C2)CC1 (stereo partly drawn) [Example 292]" measured_target="EGFR L858R/T790M/C797S (BaF3-LTC cells) (Homo sapiens, UniProt P00533, C797S/L858R/T790M)" experimental_readout=Dmax measurement_unit=% experimental_value=84.2
